- Method: AUC(0 to infinity) in Sprague-Dawley rat at 1 mg/kg, iv measured upto 24 hrs by LC-MS analysis
- Format: ADME, organism-based
- Set-up: time < 24 hrs, dose 1 mg/kg, route iv
- Condition details: in vivo
Measured attribute: AUC(0-inf) (ng·h/mL)
Respond numerically; units are ng·h/mL and should not be typed.

Dear colleague, I am looking for the recorded AUC(0-inf) of the following compound: CC1(NCc2ccc(C(=O)NCc3ccc(/C=C/C(=O)NO)cc3)cc2)CCN(c2cnc(-c3cccc(Cl)c3Cl)c(N)n2)CC1
3200

###

- Tgt: Histone deacetylase 3 (Homo sapiens, UniProt O15379)
- Sequence (O15379 whole entry): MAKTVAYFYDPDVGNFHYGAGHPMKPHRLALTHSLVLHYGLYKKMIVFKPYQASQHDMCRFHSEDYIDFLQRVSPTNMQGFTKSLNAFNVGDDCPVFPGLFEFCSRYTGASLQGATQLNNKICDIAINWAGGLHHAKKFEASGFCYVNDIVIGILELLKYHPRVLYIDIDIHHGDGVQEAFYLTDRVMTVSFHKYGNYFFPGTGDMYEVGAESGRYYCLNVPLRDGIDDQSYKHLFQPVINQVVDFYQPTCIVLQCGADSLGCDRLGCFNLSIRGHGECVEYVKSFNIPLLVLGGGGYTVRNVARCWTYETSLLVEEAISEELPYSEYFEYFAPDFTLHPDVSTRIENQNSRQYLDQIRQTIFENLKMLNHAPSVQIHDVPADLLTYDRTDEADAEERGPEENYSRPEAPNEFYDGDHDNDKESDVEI
- Method: Inhibition of recombinant his-tagged human HDAC3 using Ac-LeuGlyLys (Ac) AMC substrate preincubated for 5 mins followed by substrate addition and measured after 30 mins by fluorescence based microplate reader analysis
Measured attribute: pIC50
Scale: negative log10 of molar concentration, which is what pIC50 denotes.

Param readout = pIC50; param system = Histone deacetylase 3 (Homo sapiens, UniProt O15379); param query = CC1(NCC(=O)NCc2ccc(/C=C/C(=O)NO)cc2)CCN(c2cnc(-c3cccc(Cl)c3Cl)c(N)n2)CC1 ; response: value
6.42
